Hello, the source for this data is ChEMBL document CHEMBL5370664, in case you need it.

# System: Transthyretin (Homo sapiens), P02766 [V50M]
# ASSAY_REMARKS: Binding affinity to N-terminal hexa-histidine tagged TTR V30M mutant (unknown origin) expressed in Escherichia coli assessed as gibbs free energy change at 60 uM by ITC assay
OBSERVED_PROPERTY: deltaG

>>> observed("Oc1cc(O)cc(/C=C/c2ccc(O)cc2O)c1 [OXYRESVERATROL]")
"-8.1 kcal/mol"
>>> observed("Oc1cc(O)cc(/C=C/c2c(O)cccc2O)c1")
"-6.8 kcal/mol"
>>> observed("Oc1cc(O)cc(/C=C/c2ccc(O)c(O)c2)c1 [PICEATANNOL]")
"-8 kcal/mol"
>>> observed("COc1cc(O)cc(/C=C/c2ccc(O)cc2)c1")
"-7.7 kcal/mol"
>>> observed("COc1cc(/C=C/c2ccc(O)cc2)cc(OC)c1 [PTEROSTILBENE]")
"-7.3 kcal/mol"
>>> observed("Oc1ccc(/C=C/c2cc(O)cc(O)c2)cc1 [RESVERATROL]")
"-8 kcal/mol"
>>> observed("COc1cc(/C=C/c2cc(O)cc(O)c2)ccc1O")
"-8.1 kcal/mol"
